Tested System: CDK4 (Homo sapiens, UniProt P11802+Q16531)
Method Description: CDK4 percentage degradation in Calu-1 cells (Table 6)
Format: cell-based
Parameters: Cells that express cyclin D1-3 and CDK4/6 proteins were treated with heterobifunctional compounds; endogenous in cells; host or cells: Calu-1
Experimental Parameters: 200 nM, 16 hours
Sequence (P11802 2-303 limits assumed): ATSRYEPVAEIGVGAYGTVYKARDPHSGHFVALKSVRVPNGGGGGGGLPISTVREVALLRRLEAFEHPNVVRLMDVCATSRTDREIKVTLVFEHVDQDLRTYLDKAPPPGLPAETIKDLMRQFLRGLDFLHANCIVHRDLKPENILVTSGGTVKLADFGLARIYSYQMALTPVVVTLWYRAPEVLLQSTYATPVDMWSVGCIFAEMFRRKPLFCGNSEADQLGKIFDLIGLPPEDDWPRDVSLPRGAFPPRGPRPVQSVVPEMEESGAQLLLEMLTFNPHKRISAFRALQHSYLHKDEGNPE
Sequence (P24385 whole entry partner): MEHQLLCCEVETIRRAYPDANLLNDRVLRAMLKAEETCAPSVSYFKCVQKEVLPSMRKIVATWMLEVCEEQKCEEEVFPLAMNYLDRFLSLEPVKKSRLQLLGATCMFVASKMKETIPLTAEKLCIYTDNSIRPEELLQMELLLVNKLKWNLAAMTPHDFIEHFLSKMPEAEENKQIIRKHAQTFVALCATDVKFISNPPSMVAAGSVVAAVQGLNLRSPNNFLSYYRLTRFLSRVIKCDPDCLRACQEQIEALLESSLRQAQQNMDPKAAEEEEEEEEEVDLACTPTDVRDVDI
Sequence (Q16531 2-1140 limits assumed): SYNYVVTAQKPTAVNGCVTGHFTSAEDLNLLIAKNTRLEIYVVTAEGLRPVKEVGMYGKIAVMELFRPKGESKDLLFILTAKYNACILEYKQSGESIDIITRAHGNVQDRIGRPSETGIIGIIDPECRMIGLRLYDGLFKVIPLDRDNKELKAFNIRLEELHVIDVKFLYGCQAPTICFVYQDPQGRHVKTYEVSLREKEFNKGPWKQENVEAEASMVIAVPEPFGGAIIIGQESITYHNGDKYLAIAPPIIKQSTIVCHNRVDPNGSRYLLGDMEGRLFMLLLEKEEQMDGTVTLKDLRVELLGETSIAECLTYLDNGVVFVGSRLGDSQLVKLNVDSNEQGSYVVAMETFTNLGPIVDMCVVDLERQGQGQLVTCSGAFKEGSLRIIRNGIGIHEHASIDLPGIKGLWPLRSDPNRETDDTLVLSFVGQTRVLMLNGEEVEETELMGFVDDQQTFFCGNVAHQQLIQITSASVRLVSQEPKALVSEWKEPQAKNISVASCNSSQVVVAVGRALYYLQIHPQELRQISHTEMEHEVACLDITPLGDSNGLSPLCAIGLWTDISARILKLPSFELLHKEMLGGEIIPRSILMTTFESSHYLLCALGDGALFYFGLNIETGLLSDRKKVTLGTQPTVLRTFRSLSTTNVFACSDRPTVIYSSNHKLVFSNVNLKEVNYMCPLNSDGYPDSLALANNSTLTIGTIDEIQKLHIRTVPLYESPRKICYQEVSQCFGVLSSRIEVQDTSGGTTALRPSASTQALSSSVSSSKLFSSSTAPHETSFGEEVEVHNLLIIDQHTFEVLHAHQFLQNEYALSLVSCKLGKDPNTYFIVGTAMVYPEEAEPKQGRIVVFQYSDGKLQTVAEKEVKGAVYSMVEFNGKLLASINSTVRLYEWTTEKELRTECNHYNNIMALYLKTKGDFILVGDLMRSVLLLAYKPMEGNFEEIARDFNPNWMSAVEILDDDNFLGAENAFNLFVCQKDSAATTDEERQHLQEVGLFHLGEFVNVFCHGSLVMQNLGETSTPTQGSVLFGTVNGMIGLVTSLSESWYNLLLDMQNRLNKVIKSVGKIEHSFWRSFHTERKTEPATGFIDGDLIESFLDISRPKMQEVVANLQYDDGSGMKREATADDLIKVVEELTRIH
List of inhibition at 0.2 µM values.
Attribute Measured: inhibition at 0.2 µM

>  <Compound>
CC(=O)c1c(C)c2cnc(Nc3ccc(N4CCN(C(C)CC(=O)N5CC6(CC(Nc7nc(NC(C)C)ccc7C(=O)Nc7cn(C)c(C8CC8)n7)C6)C5)CC4)cn3)nc2n(C2CCCC2)c1=O (centres unmarked)

>  <Experimental Result>
30 to 50%

$$$$
>  <Compound>
[2H]C([2H])([2H])Nc1ccc(C(=O)Nc2cccc(C3CC3)n2)c(NC2CC3(CC(NC(=O)CN4CCN(c5ccc(Nc6ncc7c(C)c(C(C)=O)c(=O)n(C8CCCC8)c7n6)nc5)CC4)C3)C2)n1 (centres unmarked)

>  <Experimental Result>
50 to 80%

$$$$
>  <Compound>
CNc1ccc(C(=O)Nc2ccc(N(C)C)nn2)c(N[C@H]2CC[C@H](CNC(=O)CN3CCN(c4ccc(Nc5ncc6c(C)c(C(C)=O)c(=O)n(C7CCCC7)c6n5)nc4)CC3)CC2)n1

>  <Experimental Result>
50 to 80%

$$$$
>  <Compound>
CC(=O)c1c(C)c2cnc(Nc3ccc(N4CCN(CC(=O)NCCCCCNc5nc(C6CC6)ccc5C(=O)Nc5ccc(N(C)C)nn5)CC4)cn3)nc2n(C2CCCC2)c1=O

>  <Experimental Result>
> 80%

$$$$
>  <Compound>
CNc1ccc(C(=O)Nc2ccc(N(C)C)nn2)c(NCC2CC(CNC(=O)CN3CCN(c4ccc(Nc5ncc6c(C)c(C(C)=O)c(=O)n(C7CCCC7)c6n5)nc4)CC3)C2)n1 (centres unmarked)

>  <Experimental Result>
50 to 80%

$$$$

* * *

List of inhibition at 0.2 µM values.
Tested System: CDK4 (Homo sapiens, UniProt P11802+Q16531)
Method Description: CDK4 percentage degradation in Calu-1 cells (Table 6)
Format: cell-based
Parameters: Cells that express cyclin D1-3 and CDK4/6 proteins were treated with heterobifunctional compounds; endogenous in cells; host or cells: Calu-1
Experimental Parameters: 200 nM, 16 hours

>  <Compound>
CNc1ccc(C(=O)Nc2cc(C3CC3)on2)c(NC2CC3(CC(NC(=O)CN4CCN(c5ccc(Nc6ncc7c(C)c(C(C)=O)c(=O)n(C8CCCC8)c7n6)nc5)CC4)C3)C2)n1 (centres unmarked)

>  <inhibition at 0.2 µM>
< 30%

$$$$
>  <Compound>
CNc1ccc(C(=O)Nc2ccc(N(C)C)nn2)c(NC2CC3(C2)CN(C(=O)C(C)(C)CN2CCN(c4ccc(Nc5ncc6c(C)c(C(C)=O)c(=O)n(C7CCCC7)c6n5)nc4)CC2)C3)n1

>  <inhibition at 0.2 µM>
50 to 80%

$$$$
>  <Compound>
CNc1ccc(C(=O)Nc2ccc(N(C)C)nn2)c(NCCCCNC(=O)CCN2CCN(c3ccc(Nc4ncc5c(C)c(C(C)=O)c(=O)n(C6CCCC6)c5n4)nc3)CC2)n1

>  <inhibition at 0.2 µM>
50 to 80%

$$$$
>  <Compound>
CNc1ccc(C(=O)Nc2ccc(N(C)C)nn2)c(NC2CC(COCC(=O)N3CCN(c4ccc(Nc5ncc6c(C)c(C(C)=O)c(=O)n(C7CCCC7)c6n5)nc4)CC3)C2)n1 (centres unmarked)

>  <inhibition at 0.2 µM>
> 80%

$$$$
>  <Compound>
CC(=O)c1c(C)c2cnc(Nc3ccc(N4CCN(CC(=O)NCCCCCNc5nc(NC6CCC6)ccc5C(=O)Nc5ccc(N(C)C)nn5)CC4)cn3)nc2n(C2CCCC2)c1=O

>  <inhibition at 0.2 µM>
50 to 80%

$$$$
>  <Compound>
CNc1ccc(C(=O)NC2CCC(N(C)C)C2)c(NCCCCCNC(=O)CN2CCN(c3ccc(Nc4ncc5c(C)c(C(C)=O)c(=O)n(C6CCCC6)c5n4)nc3)CC2)n1 (centres unmarked)

>  <inhibition at 0.2 µM>
< 30%

$$$$
>  <Compound>
CNc1ccc(C(=O)Nc2ccc(N(C)C)nn2)c(NC2CC(CNC(=O)CCN3CCN(c4ccc(Nc5ncc6c(C)c(C(C)=O)c(=O)n(C7CCCC7)c6n5)nc4)CC3)C2)n1 (centres unmarked)

>  <inhibition at 0.2 µM>
50 to 80%

$$$$
>  <Compound>
CNc1ccc(C(=O)Nc2ccc(N(C)C)cn2)c(NCCCCCNC(=O)CN2CCN(c3ccc(Nc4ncc5c(C)c(C(C)=O)c(=O)n(C6CCCC6)c5n4)nc3)CC2)n1

>  <inhibition at 0.2 µM>
50 to 80%

$$$$
>  <Compound>
CC(=O)c1c(C)c2cnc(Nc3ccc(N4CCN(CC(=O)NC5CC6(C5)CC(Nc5nc(NC(C)C)ccc5C(=O)Nc5cc(C)on5)C6)CC4)cn3)nc2n(C2CCCC2)c1=O (centres unmarked)

>  <inhibition at 0.2 µM>
50 to 80%

$$$$
>  <Compound>
CNc1ccc(C(=O)Nc2ccc(N(C)C)nn2)c(NC2CC(CCC(=O)N3CCN(c4ccc(Nc5ncc6c(C)c(C(C)=O)c(=O)n(C7CCCC7)c6n5)nc4)CC3)C2)n1 (centres unmarked)

>  <inhibition at 0.2 µM>
30 to 50%

$$$$
>  <Compound>
[2H]C([2H])([2H])Nc1ccc(C(=O)Nc2cc(C)on2)c(NC2CN(C(=O)C(F)(F)CN3CCN(c4ccc(Nc5ncc6c(C)c(C(C)=O)c(=O)n(C7CCCC7)c6n5)nc4)CC3)C2)n1

>  <inhibition at 0.2 µM>
< 30%

$$$$

* * *

List of activity at 0.1 µM values.
Tested System: CDK4 (Homo sapiens, UniProt P11802+Q16531)
Method Description: HiBiT detection of HiBiT-tagged CDK4 protein level in MCF7 cells, 16 hours (Table 8)
Assay type: cell-based
Parameters: expressed in transfected cells; host or cells: MCF7
Experimental Parameters: 100 nM, MCF7 cells stably expressing HiBiT tagged target proteins, read-out: % CDK4 Relative Level (100 nM)
Procedure: HiBiT detection system quantitatively measures total amounts of HiBiT-tagged proteins using a luminescent based method. MCF7 cells stably expressing HiBiT tagged target proteins were treated with heterobifunctional compounds at indicated concentrations for 16 hours, then lysed with Nano-Glo HiBiT Lytic detection reagents.
Sequence (P11802 whole entry): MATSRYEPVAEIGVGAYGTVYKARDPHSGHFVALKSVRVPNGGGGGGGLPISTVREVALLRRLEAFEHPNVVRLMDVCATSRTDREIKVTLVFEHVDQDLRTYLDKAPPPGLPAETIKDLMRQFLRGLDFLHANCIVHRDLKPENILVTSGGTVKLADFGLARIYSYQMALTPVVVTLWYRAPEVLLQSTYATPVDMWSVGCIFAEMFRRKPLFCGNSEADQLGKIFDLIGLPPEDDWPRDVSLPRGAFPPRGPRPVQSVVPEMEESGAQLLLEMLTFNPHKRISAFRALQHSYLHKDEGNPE
Sequence (P24385 whole entry partner): as the sequence (P24385 whole entry partner) above
Sequence (Q16531 2-1140 limits assumed): as the sequence (Q16531 2-1140 limits assumed) above

>  <Molecule>
CC(=O)c1c(C)c2cnc(Nc3ccc(CN4CCN(CC(=O)N5CCC6(CC(Nc7nc(NC(C)C)ccc7C(=O)Nc7ccc(N(C)C)nn7)C6)C5)CC4)cn3)nc2n(C2CCCC2)c1=O (stereo not drawn)

>  <activity at 0.1 µM>
55 to 85%

$$$$
>  <Molecule>
COc1cccc(NC(=O)c2ccc(NC(C)C)nc2NC2CC3(C2)CN(C(=O)CN2CCC4(CCN(c5ccc(Nc6ncc7c(C)c(C(C)=O)c(=O)n(C8CCCC8)c7n6)nc5)C4)C2)C3)n1 (stereo not drawn)

>  <activity at 0.1 µM>
55 to 85%

$$$$
>  <Molecule>
CNc1ccc(C(=O)Nc2ccc(N(C)C)nn2)c(NCCCCC(=O)N2CCN(c3ccc(Nc4ncc(F)c(-c5cc(F)c6nc(C)n(C(C)C)c6c5)n4)nc3)CC2)n1

>  <activity at 0.1 µM>
> 85%

$$$$
>  <Molecule>
CC(=O)c1c(C)c2cnc(Nc3ccc(N4CCN(CC(=O)N(C)CC56CC(Nc7nc(NC(C)C)ccc7C(=O)Nc7ccc(N(C)C)nn7)(C5)C6)CC4)cn3)nc2n(C2CCCC2)c1=O

>  <activity at 0.1 µM>
> 85%

$$$$
>  <Molecule>
CC(=O)c1c(C)c2cnc(Nc3ccc(CN4CCN(CC(=O)NC5CC6(C5)CC(Nc5nc(NC(C)C)ccc5C(=O)Nc5ccc(N(C)C)nn5)C6)CC4)cn3)nc2n(C2CCCC2)c1=O (stereo not drawn)

>  <activity at 0.1 µM>
≤ 55%

$$$$
>  <Molecule>
CC(C)Nc1ccc(C(=O)Nc2ccc(N(C)C)nn2)c(NC2CC3(C2)CN(C(=O)CN2CCN(Cc4ccc(Nc5ncc6cc7n(c6n5)C5(CCCCC5)CNC7=O)nc4)CC2)C3)n1

>  <activity at 0.1 µM>
> 85%

$$$$
>  <Molecule>
CNc1ccc(C(=O)Nc2ccc(N(C)C)nn2)c(NCCOCCC(=O)N2CCN(Cc3ccc(Nc4ncc(F)c(-c5cc(F)c6nc(C)n(C(C)C)c6c5)n4)nc3)CC2)n1

>  <activity at 0.1 µM>
> 85%

$$$$
>  <Molecule>
CNc1ccc(C(=O)Nc2ccc(N(C)C)nn2)c(NCCCCCCNC(=O)CN2CCN(c3ccc(Nc4ncc5cc6n(c5n4)C4(CCCCC4)CNC6=O)nc3)CC2)n1

>  <activity at 0.1 µM>
> 85%

$$$$
>  <Molecule>
CNc1ccc(C(=O)Nc2ccc(N(C)C)nn2)c(NCCCNC(=O)CN2CCN(c3ccc(Nc4ncc5cc6n(c5n4)C4(CCCCC4)CNC6=O)nc3)CC2)n1

>  <activity at 0.1 µM>
> 85%

$$$$
>  <Molecule>
CC(=O)c1c(C)c2cnc(Nc3ccc(N4CCN(CC(=O)NCC56CC(Nc7nc(NC(C)C)ccc7C(=O)Nc7ccc(N(C)C)nn7)(C5)C6)CC4)cn3)nc2n(C2CCCC2)c1=O

>  <activity at 0.1 µM>
55 to 85%

$$$$
>  <Molecule>
[2H]C([2H])([2H])Nc1ccc(C(=O)Nc2ccc(N(C)C)nn2)c(NC2CCN(CC(=O)N3CCN(Cc4ccc(Nc5ncc6c(C)c(C(C)=O)c(=O)n(C7CCCC7)c6n5)nc4)CC3)CC2)n1

>  <activity at 0.1 µM>
> 85%

$$$$
>  <Molecule>
CC(=O)c1c(C)c2cnc(Nc3ccc(N4CCN(CCC(=O)N5CC6(CC(Nc7nc(NC(C)C)ccc7C(=O)Nc7ccc(N(C)C)nn7)C6)C5)CC4)cn3)nc2n(C2CCCC2)c1=O

>  <activity at 0.1 µM>
55 to 85%

$$$$
>  <Molecule>
[2H]C([2H])([2H])Nc1ccc(C(=O)Nc2cc(C)n(C)n2)c(NC2CC3(C2)CN(C(=O)CN2CCC4(CCN(c5ccc(Nc6ncc7c(C)c(C(C)=O)c(=O)n(C8CCCC8)c7n6)nc5)C4)C2)C3)n1 (stereo not drawn)

>  <activity at 0.1 µM>
55 to 85%

$$$$
>  <Molecule>
CNc1ccc(C(=O)Nc2ccc(N(C)C)nn2)c(NCCCCCCCCNC(=O)CN2CCN(Cc3ccc(Nc4ncc(F)c(-c5cc(F)c6nc(C)n(C(C)C)c6c5)n4)nc3)CC2)n1

>  <activity at 0.1 µM>
> 85%

$$$$
>  <Molecule>
CNc1ccc(C(=O)Nc2ccc(N(C)C)nn2)c(NCCCCCCCC(=O)NC2CCC(Nc3ncc4ccc(=O)n(C5CCCC5)c4n3)CC2)n1 (stereo not drawn)

>  <activity at 0.1 µM>
> 85%

$$$$
>  <Molecule>
CNc1ccc(C(=O)Nc2ccc(N(C)C)nn2)c(NCCCCCCCC(=O)N2CCN(c3ccc(Nc4ncc(F)c(-c5cc(F)c6nc(C)n(C(C)C)c6c5)n4)nc3)CC2)n1

>  <activity at 0.1 µM>
> 85%

$$$$
>  <Molecule>
CC(=O)c1c(C)c2cnc(Nc3ccc(N4CCN(CC(=O)NCC5CC(Nc6nc(NC(C)C)ccc6C(=O)Nc6cc(C)on6)C5)CC4)cn3)nc2n(C2CCCC2)c1=O (stereo not drawn)

>  <activity at 0.1 µM>
55 to 85%

$$$$
>  <Molecule>
CNc1ccc(C(=O)Nc2ccc(N(C)C)nn2)c(NCCCCC(=O)N2CCN(c3ccc(Nc4ncc5cc(C(=O)N(C)C)n(C6CCCC6)c5n4)nc3)CC2)n1

>  <activity at 0.1 µM>
55 to 85%

$$$$
>  <Molecule>
CNc1ccc(C(=O)Nc2ccc(N(C)C)nn2)c(NCCCCCCCC(=O)N2CCN(c3ccc(Nc4ncc5cc6n(c5n4)C4(CCCCC4)CNC6=O)nc3)CC2)n1

>  <activity at 0.1 µM>
> 85%

$$$$
>  <Molecule>
CC(=O)c1c(C)c2cnc(Nc3ccc(CN4CCN(CC(=O)NC5CCC(Nc6nc(NC(C)C)ccc6C(=O)Nc6ccc(N(C)C)nn6)CC5)CC4)cn3)nc2n(C2CCCC2)c1=O (stereo not drawn)

>  <activity at 0.1 µM>
> 85%

$$$$
>  <Molecule>
CC(=O)c1c(C)c2cnc(Nc3ccc(N4CCN(C5CCN(C(=O)CC67CC(Nc8nc(NC(C)C)ccc8C(=O)Nc8ccc(N(C)C)nn8)(C6)C7)C5)CC4)cn3)nc2n(C2CCCC2)c1=O (stereo not drawn)

>  <activity at 0.1 µM>
> 85%

$$$$
